# measured-target: HLA-A*02:03
# assay-text: IEDB peptide-MHC binding, purified MHC/competitive/radioactivity; filed as Kd, often an IC50 or EC50 that approximates it; bounds were set here for any values at or beyond the usual limits of such assays
# reported-conditions: source organism: Vaccinia virus WR
assay-endpoint: Kd

Study these solved cases before continuing.
{"columns": ["sequence-chain", "measured-target", "Kd"],
 "data": [
  ["QTVDFTDCRT", "HLA-A*02:03", "≥ 54.3 µM"],
  ["TIDNIVTSLA", "HLA-A*02:03", "≥ 70.4 µM"]
]}

Turning now to a further sequence:
q: Which Kd is reported for this sequence? `TTNNLLEQLI`
a: ≥ 21 µM

###

# measured-target: HLA-B*51:01
# assay-text: IEDB peptide-MHC binding, purified MHC/competitive/radioactivity; filed as Kd, often an IC50 or EC50 that approximates it; bounds were set here for any values at or beyond the usual limits of such assays
# reported-conditions: source organism: Vaccinia virus WR
assay-endpoint: Kd

As a guide, the following entries are already answered.
{"columns": ["sequence-chain", "measured-target", "result"],
 "data": [
  ["PPLISILMIF", "HLA-B*51:01", "2.02 µM"],
  ["TPLHKYCVNL", "HLA-B*51:01", "≥ 37.1 µM"]
]}

q: Checklist item: Kd tested on HLA-B*51:01, entry `DPGNPNCLEW` , value?
a: ≥ 69.6 µM

###

# measured-target: HLA-A*68:01
# assay-text: IEDB peptide-MHC binding, purified MHC/competitive/radioactivity; filed as Kd, often an IC50 or EC50 that approximates it; bounds were set here for any values at or beyond the usual limits of such assays
# reported-conditions: source organism: SARS coronavirus Tor2
For each entry below, report its Kd value.

Here's what some known entries look like.
{"columns": ["sequence-chain", "assay-endpoint", "result"],
 "data": [
  ["ALALLLLDR", "Kd", "≥ 52.9 µM"],
  ["SQILPDPLK", "Kd", "≥ 50.4 µM"]
]}

q: Form field: reported Kd of `ALYEQVVMDY`
a: ≥ 32.5 µM

###

So I've got a bunch of sequences here, and I need their Kd values.
# measured-target: HLA-B*35:01
# assay-text: IEDB peptide-MHC binding, purified MHC/competitive/radioactivity; filed as Kd, often an IC50 or EC50 that approximates it; bounds were set here for any values at or beyond the usual limits of such assays
# reported-conditions: source organism: Vaccinia virus WR
Answers are plain numbers, in µM.

{"columns": ["sequence-chain", "assay-endpoint", "numeric-result"],
 "data": [
  ["LPPFTQHLL", "Kd", 0.24]
]}

Field: Kd. Fill in for each record below.
1. SPLPSLEYGA
2. EPSGNNYHIL
3. IPYSRVNHA

a:
[6, 8.08, 0.0572]

###

# measured-target: HLA-A*03:01
# assay-text: IEDB peptide-MHC binding, purified MHC/competitive/radioactivity; filed as Kd, often an IC50 or EC50 that approximates it; bounds were set here for any values at or beyond the usual limits of such assays
# reported-conditions: source organism: SARS coronavirus Tor2
Would you mind telling me the reported pKd of each entry?
Answers are plain numbers, as −log10 of the molar value.

{"columns": ["sequence-chain", "measured-target", "pKd"],
 "data": [
  ["VFHLYLQYIR", "HLA-A*03:01", 6.15],
  ["KTQFNYFKK", "HLA-A*03:01", 6.94]
]}

Attention now turns to another entry.
q: Which measured pKd value corresponds to `TFFIFNKLVK` ?
a: 7.09
